# systemName: T1, hFLAG-EGF34+NRR-His6 (101V), the human Notch1 NRR immunogen (Notch1 V1307-Q1733) (human, UniProt P46531 1307-1733)
# T1 construct: also called hNotch1 NRR; human NRR1
# T1 sequence (P46531 other isoform, or with tags, fused parts or gaps limits assumed): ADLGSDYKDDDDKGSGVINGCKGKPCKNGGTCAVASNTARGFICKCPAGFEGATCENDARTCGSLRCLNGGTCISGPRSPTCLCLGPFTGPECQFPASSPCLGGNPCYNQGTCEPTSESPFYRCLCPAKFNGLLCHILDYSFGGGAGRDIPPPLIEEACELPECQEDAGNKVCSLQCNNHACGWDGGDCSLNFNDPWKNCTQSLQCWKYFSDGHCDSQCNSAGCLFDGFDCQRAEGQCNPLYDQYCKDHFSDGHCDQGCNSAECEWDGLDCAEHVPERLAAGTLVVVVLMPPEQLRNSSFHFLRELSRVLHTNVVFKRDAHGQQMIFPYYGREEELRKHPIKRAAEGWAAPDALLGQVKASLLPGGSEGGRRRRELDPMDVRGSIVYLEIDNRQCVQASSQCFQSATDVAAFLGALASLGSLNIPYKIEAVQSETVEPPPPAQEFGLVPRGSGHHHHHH
# protocolSummary: SPR (BIAcore-3000), IgG captured by anti-human IgG, NRR1-ECD injected 3.9-500 nM, 25 C
attributeMeasured: kon (M⁻¹ s⁻¹)
Output spec: scalar in M⁻¹ s⁻¹, unitless text.

Example binders with recorded kon:
binder	kon [M⁻¹ s⁻¹]
Antibody A-1 (antibody, V domains shown, also called Antibody A-1-hIgG1) VH: EVQLVESGGGLVQPGGSLRLSCAASGFTFSSYWIHWVRQAPGKGLEWVARINPPNGSAHYADSVKGRFTISADTSKNTAYLQMNSLRAEDTAVYYCARGSGFRWVMDYWGQGTLVTVSS VL: DIQMTQSPSSLSASVGDRVTITCRASQDVSTAVAWYQQKPDGTVKLLIYSASFLYSGVPSRFSGSGSGTDFTLTISSLQPEDFATYYCQQSYTTPATFGQGTKVEIKR	67000
Antibody A-2 (antibody, V domains shown, also called Antibody A-2-hIgG1) VH: EVQLVESGGGLVQPGGSLRLSCAASGFTFSSYWIHWVRQAPGKGLEWVARINPPNRSNQYADSVKGRFTISADTSKNTAYLQMNSLRAEDTAVYYCARGSGFRWVMDYWGQGTLVTVSS VL: DIQMTQSPSSLSASVGDRVTITCRASQDVSTAVAWYQQKPDGTVKLLIYSASFLYSGVPSRFSGSGSGTDFTLTISSLQPEDFATYYCQQFYTTPSTFGQGTKVEIKR	87000
Antibody A (antibody, V domains shown, Tested as full-length human IgG1 (hIgG1) made in CHO cells; also called anti-Notch1 NRR Antibody A; Antibody A-hIgG1) VH: EVQLVESGGGLVQPGGSLRLSCAASGFTFSSYWIHWVRQAPGKGLEWVARINPSNGSTNYADSVKGRFTISADTSKNTAYLQMNSLRAEDTAVYYCARGSGFRWVMDYWGQGTLVTVSS VL: DIQMTQSPSSLSASVGDRVTITCRASQDVSTAVAWYQQKPDGTVKLLIYSASFLYSGVPSRFSGSGSGTDFTLTISSLQPEDFATYYCQQSYTTPPTFGQGTKVEIKR	82000

Proceed to the following item.
Problem: Determine from records and report kon for Antibody A-3 (antibody, V domains shown) VH: EVQLVESGGGLVQPGGSLRLSCAASGFTFSSYWIHWVRQAPGKGLEWVARINPANGSTRYADSVKGRFTISADTSKNTAYLQMNSLRAEDTAVYYCARGSGFRWVMDYWGQGTLVTVSS VL: DIQMTQSPSSLSASVGDRVTITCRASQDVSTAVAWYQQKPDGTVKLLIYSASFLYSGVPSRFSGSGSGTDFTLTISSLQPEDFATYYCQQSFSTPATFGQGTKVEIK
Result: 68000
